test: in vivo; conditions: dog
Reported metric: half-life

## Input Query: half-life; subject: CC(C)N1CCN(c2ccc(Nc3ncc4cc5n(c4n3)C3(CCCCC3)CNC5=O)nc2)CC1.Cl.Cl
## Output 10.5 to 14.7 h

====

target: CDK9/Cyclin T (Homo sapiens, UniProt P50750); settings: 12-point dose response, singlicate, at Km for ATP
Sequence (P50750 whole entry): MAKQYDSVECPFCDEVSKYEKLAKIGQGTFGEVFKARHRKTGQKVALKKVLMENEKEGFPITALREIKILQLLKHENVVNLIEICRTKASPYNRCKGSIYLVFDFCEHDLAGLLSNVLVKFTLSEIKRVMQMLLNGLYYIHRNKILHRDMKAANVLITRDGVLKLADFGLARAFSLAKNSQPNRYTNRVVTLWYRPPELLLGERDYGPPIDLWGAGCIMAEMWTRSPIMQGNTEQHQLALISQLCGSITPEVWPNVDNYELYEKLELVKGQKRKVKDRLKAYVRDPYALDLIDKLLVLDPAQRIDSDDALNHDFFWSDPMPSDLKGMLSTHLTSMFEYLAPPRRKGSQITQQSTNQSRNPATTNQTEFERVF
Sequence (O60563 whole entry partner): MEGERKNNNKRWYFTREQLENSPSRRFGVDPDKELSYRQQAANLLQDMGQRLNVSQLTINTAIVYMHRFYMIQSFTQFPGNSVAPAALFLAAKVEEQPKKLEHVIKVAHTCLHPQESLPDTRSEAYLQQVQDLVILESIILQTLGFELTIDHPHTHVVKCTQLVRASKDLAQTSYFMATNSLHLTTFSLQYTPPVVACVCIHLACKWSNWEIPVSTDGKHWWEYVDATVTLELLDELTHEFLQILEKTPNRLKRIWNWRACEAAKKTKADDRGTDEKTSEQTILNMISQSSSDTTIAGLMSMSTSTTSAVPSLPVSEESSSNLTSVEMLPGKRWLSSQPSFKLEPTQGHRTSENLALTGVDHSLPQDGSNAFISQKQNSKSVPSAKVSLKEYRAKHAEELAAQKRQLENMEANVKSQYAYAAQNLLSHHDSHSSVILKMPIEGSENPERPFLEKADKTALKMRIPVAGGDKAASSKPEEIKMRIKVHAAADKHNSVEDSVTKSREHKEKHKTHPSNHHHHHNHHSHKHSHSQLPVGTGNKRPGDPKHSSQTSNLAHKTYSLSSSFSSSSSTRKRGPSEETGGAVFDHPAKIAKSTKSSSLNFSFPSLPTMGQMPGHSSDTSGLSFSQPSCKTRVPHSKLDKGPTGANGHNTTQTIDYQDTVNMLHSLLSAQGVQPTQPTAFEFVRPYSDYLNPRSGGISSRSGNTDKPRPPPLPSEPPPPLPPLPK
Reported metric: pIC50
For clarity, pIC50 is expressed as the negative log10 of concentration in mol/L.

## Input # get_value(readout='pIC50', item= CC(C)N1CCN(c2ccc(Nc3ncc4cc5n(c4n3)C3(CCCCC3)CNC5=O)nc2)CC1.Cl.Cl )
## Output 7.55

====

test: in vivo; conditions: C57BL/6, mouse, po
Reported metric: concentration at 24 h

## Input Which measured concentration at 24 h value corresponds to CC(C)N1CCN(c2ccc(Nc3ncc4cc5n(c4n3)C3(CCCCC3)CNC5=O)nc2)CC1.Cl.Cl [G1T38] ?
## Output ~22 nM

====

molecular target: SNARK (Homo sapiens, UniProt Q9H093)
Reported metric: Kd (nM)
Report as a plain number; the unit nM is understood.

## Input Quick check: Kd of CC(C)N1CCN(c2ccc(Nc3ncc4cc5n(c4n3)C3(CCCCC3)CNC5=O)nc2)CC1.Cl.Cl ?
## Output 0.69

====

Tested on: MV4-11
Assay: Cell proliferation, CellTiter-Glo
Assay type: cell-based
Settings: Homo sapiens, 144 h; MV4-11, B cell leukemia, RB +; four or six days; read-out: G1T38 EC50, growth inhibition
Procedure: To assess the capacity of G1T38 to inhibit proliferation of tumor cell lines, a broad panel of CDK4/6 dependent and independent lines was evaluated using CellTiter Glo (Table 2). SupT1, Daudi, MCF7, ZR-75-1, A2058, WM2664, and H69 cells were seeded at 1000 cells per well; MV-4-11 and BV173 cells were plated at 4000 cells per well; Tom-1 cells were plated at 8,000 cells per well; NALM-1 cells were plated at 20,000 cells per well in Costar 3903 96 well plates. […]
Reported metric: pEC50
The value called pEC50 is obtained by taking minus log10 of the concentration in mol/L.

## Input Short answer please: pEC50, MV4-11, entry CC(C)N1CCN(c2ccc(Nc3ncc4cc5n(c4n3)C3(CCCCC3)CNC5=O)nc2)CC1.Cl.Cl [G1T38]
## Output 7.64

====

biological target: CDK7/Cyclin H/ Mat1 (Homo sapiens); details: 12-point dose response, singlicate, at Km for ATP
Sequence (P50613 whole entry): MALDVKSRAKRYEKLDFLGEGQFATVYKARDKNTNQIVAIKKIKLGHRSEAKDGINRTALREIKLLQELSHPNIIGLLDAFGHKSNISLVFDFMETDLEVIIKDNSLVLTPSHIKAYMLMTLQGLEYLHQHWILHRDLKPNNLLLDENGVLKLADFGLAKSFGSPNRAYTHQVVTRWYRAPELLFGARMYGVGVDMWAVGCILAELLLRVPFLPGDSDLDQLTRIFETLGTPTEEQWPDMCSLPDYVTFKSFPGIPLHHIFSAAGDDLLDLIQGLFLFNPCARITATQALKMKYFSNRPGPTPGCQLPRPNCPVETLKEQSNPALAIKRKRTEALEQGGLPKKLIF
Sequence (P51946 whole entry partner): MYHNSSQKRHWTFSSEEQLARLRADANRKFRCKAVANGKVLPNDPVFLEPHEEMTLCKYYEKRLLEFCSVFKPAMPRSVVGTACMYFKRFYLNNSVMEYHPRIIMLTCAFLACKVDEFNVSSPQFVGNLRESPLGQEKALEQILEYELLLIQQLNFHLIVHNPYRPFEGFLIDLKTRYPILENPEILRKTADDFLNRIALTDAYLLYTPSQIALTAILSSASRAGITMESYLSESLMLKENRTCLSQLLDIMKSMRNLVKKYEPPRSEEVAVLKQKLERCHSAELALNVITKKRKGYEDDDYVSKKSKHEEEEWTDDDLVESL
Sequence (P51948 whole entry partner): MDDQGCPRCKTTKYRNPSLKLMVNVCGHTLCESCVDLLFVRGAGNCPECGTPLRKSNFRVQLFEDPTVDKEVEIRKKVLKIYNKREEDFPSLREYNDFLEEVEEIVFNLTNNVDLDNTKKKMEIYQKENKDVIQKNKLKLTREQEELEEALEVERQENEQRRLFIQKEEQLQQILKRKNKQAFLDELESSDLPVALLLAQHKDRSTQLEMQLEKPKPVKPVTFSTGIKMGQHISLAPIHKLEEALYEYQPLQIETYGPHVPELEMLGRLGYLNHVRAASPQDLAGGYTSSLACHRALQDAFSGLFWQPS
Reported metric: pIC50
Answer as the number alone; pIC50 is minus log10 of concentration in mol/L.

## Input Kindly state the measured pIC50 obtained for CC(C)N1CCN(c2ccc(Nc3ncc4cc5n(c4n3)C3(CCCCC3)CNC5=O)nc2)CC1.Cl.Cl with CDK7/Cyclin H/ Mat1 (Homo sapiens).
## Output 5.62

====

assay: Elimination half-life; conditions: rat, in vivo
Reported metric: half-life (h)
Supply the numeric figure in h, leaving out any unit text.

## Input Can you look up the measured half-life of CC(C)N1CCN(c2ccc(Nc3ncc4cc5n(c4n3)C3(CCCCC3)CNC5=O)nc2)CC1.Cl.Cl [G1T38] for me?
## Output 3.1

====

Biological target: FLT3 (D835V) (Homo sapiens, UniProt P36888, D835V)
Sequence (P36888 27-993 D835V): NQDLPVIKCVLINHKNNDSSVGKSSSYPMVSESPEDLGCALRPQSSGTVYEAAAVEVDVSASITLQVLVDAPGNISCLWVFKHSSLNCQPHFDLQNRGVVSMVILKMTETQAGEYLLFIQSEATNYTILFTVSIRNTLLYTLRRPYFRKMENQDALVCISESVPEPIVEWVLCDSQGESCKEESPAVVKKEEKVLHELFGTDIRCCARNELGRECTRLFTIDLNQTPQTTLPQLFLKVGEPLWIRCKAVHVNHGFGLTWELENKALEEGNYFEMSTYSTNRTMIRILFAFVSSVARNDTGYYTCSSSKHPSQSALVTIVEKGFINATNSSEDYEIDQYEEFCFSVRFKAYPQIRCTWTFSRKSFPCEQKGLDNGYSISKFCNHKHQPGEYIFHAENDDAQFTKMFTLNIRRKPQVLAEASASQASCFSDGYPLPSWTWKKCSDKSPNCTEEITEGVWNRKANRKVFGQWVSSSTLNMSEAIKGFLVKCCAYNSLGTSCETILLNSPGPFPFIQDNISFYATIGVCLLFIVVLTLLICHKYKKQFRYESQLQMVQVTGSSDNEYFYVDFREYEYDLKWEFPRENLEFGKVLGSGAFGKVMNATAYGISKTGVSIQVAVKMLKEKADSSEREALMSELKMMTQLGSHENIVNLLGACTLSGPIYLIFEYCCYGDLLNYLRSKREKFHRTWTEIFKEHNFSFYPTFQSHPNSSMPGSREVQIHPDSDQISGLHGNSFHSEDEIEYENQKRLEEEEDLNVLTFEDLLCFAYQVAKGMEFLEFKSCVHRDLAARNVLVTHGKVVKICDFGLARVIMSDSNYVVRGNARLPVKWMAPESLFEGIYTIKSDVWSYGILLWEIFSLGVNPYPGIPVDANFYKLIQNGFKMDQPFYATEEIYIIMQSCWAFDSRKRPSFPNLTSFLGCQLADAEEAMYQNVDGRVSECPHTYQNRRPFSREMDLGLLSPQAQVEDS
Assay: KdELECT Kd determination (DiscoveRx)
Settings: duplicate 11-point dose-response curves
Reported metric: Kd (nM)
Give the number; nM is assumed, so skip it.

## Input Suppose we examine the compound CC(C)N1CCN(c2ccc(Nc3ncc4cc5n(c4n3)C3(CCCCC3)CNC5=O)nc2)CC1.Cl.Cl [G1T38] ; what Kd value has been reported?
## Output 6.5

====

system: NALM1; experiment: Cell proliferation, CellTiter-Glo; assay type: cell-based; conditions: 144 h; NALM1, Leukemia, RB -; four or six days; read-out: G1T38 EC50, growth inhibition
Reported metric: EC50

## Input // lookup EC50 | system=NALM1 | key= CC(C)N1CCN(c2ccc(Nc3ncc4cc5n(c4n3)C3(CCCCC3)CNC5=O)nc2)CC1.Cl.Cl
## Output > 10 µM

====

target: JAK2 (Homo sapiens, UniProt O60674)
Sequence (O60674 whole entry, species assumed): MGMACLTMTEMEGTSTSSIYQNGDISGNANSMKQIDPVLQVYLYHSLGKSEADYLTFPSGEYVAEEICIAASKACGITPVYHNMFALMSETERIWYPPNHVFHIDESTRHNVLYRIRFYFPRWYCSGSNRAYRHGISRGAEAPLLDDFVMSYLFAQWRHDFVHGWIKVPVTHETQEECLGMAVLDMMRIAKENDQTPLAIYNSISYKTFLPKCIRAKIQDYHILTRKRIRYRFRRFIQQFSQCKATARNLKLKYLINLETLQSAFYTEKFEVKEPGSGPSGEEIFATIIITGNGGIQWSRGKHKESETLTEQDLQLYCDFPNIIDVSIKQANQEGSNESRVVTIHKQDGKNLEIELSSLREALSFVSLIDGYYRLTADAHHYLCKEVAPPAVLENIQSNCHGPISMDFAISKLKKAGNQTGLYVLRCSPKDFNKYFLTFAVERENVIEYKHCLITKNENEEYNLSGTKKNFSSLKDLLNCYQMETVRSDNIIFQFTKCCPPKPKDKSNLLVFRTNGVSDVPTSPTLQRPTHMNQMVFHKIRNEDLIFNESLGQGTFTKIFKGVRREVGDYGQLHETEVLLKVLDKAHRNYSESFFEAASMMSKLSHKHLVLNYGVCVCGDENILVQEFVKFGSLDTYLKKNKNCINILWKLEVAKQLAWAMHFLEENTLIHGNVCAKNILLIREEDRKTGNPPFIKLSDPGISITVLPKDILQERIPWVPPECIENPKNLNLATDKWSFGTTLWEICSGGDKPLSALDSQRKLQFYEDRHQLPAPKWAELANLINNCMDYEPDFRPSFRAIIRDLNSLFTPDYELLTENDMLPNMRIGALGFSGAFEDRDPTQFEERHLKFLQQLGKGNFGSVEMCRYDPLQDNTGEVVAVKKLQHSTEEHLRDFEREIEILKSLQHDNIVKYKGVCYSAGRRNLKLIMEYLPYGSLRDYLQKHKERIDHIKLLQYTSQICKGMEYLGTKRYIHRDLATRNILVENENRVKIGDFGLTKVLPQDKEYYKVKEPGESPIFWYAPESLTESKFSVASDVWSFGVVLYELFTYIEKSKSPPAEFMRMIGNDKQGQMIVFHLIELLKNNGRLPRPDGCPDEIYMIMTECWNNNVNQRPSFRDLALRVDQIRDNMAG
Reported metric: IC50

## Input Data request, read-out IC50, for CC(C)N1CCN(c2ccc(Nc3ncc4cc5n(c4n3)C3(CCCCC3)CNC5=O)nc2)CC1.Cl.Cl
## Output > 500 nM

====

system: WM2664; assay: Cell proliferation, CellTiter-Glo; format: cell-based; settings: Homo sapiens, WM 266-4, 144 h; WM2664, Melanoma, RB +; four or six days; read-out: G1T38 EC50, growth inhibition
Reported metric: EC50
Please format your answer as a value with the unit trailing.

## Input Fill blank: measured EC50 of the molecule CC(C)N1CCN(c2ccc(Nc3ncc4cc5n(c4n3)C3(CCCCC3)CNC5=O)nc2)CC1.Cl.Cl is ____.
## Output 125 nM

====

test: 7-day continuous oral PK; settings: C57BL/6, mouse, plasma
Reported metric: concentration at 24 h

## Input Dear colleague, I am looking for the recorded concentration at 24 h of the following compound: CC(=O)c1c(C)c2cnc(Nc3ccc(N4CCNCC4)cn3)nc2n(C2CCCC2)c1=O [palbociclib]
## Output ~600 nM

====

target: SLK (Homo sapiens)
Sequence (Q9H2G2 whole entry): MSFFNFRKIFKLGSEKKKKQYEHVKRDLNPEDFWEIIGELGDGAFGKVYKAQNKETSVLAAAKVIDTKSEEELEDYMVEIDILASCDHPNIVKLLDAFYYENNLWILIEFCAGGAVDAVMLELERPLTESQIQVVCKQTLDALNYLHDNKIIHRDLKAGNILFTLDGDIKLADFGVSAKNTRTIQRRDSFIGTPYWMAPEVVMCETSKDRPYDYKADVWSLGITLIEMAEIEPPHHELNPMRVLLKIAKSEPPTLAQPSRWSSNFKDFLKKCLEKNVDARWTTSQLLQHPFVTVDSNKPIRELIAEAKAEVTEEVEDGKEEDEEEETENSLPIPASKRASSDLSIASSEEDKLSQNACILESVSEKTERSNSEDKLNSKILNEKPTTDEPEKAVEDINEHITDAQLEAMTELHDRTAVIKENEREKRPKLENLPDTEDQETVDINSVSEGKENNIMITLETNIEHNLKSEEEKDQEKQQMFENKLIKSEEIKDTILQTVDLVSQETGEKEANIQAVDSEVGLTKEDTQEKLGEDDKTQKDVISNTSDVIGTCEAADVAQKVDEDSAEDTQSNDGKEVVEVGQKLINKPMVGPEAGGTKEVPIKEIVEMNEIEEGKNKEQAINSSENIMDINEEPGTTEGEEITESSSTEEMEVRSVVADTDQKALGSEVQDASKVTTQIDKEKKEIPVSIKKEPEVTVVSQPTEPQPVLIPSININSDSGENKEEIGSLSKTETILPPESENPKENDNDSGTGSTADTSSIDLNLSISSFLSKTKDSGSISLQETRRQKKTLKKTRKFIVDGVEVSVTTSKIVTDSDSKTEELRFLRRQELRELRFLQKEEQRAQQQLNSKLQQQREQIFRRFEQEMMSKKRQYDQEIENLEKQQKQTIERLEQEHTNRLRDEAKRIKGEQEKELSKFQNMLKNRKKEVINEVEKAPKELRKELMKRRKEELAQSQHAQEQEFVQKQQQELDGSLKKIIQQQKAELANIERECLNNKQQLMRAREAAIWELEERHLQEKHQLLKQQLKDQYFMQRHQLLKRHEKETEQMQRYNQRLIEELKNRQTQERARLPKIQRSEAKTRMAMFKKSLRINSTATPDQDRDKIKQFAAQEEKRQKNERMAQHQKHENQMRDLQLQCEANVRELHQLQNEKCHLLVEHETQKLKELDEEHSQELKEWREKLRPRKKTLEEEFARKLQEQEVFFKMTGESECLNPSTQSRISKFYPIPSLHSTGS
Reported metric: Kd (µM)
Respond with the bare value in µM.

## Input Looking for the measured Kd of CC(C)N1CCN(c2ccc(Nc3ncc4cc5n(c4n3)C3(CCCCC3)CNC5=O)nc2)CC1.Cl.Cl , can you help?
## Output 0.011

====

Target: FLT3 (ITD, D835V) (Homo sapiens, UniProt P36888, D835V/ITD)
Experiment: KdELECT Kd determination (DiscoveRx)
Protocol: G1T38 was profiled at DiscoveRx (Fremont, CA) using their KINOMEscan and scanMAX screening technology. Briefly, G1T38 was tested at 100 and 1000 times the biochemical IC50 as described in Figure 1B. All target kinases that responded to greater than 90% inhibition were tested as individuals for Kd determination as described in Supplementary Table 1. […] KdELECT® (DiscoveRx) was used as a follow-up to quantify binding affinity of G1T38-kinase interactions identified in the primary screen. […]
Reported metric: Kd (nM)
Kindly answer with a numeric value in nM, unit omitted.

## Input May I ask what Kd has been recorded for CC(C)N1CCN(c2ccc(Nc3ncc4cc5n(c4n3)C3(CCCCC3)CNC5=O)nc2)CC1.Cl.Cl ?
## Output 22

====

biological target: PRKD2 (Homo sapiens); construct: purchased DiscoveRx (KdELECT service); experiment: KdELECT Kd determination (DiscoveRx); assay type: binding; conditions: duplicate 11-point dose-response curves
Reported metric: pKd
Quick note: pKd values are minus log10 of concentrations in mol/L.

## Input Fill in: pKd of CC(C)N1CCN(c2ccc(Nc3ncc4cc5n(c4n3)C3(CCCCC3)CNC5=O)nc2)CC1.Cl.Cl is ___
## Output 8.00
